study.system: JAK3/JAK1 (Homo sapiens, UniProt P23458+P52333)
Sequence (P52333 whole entry): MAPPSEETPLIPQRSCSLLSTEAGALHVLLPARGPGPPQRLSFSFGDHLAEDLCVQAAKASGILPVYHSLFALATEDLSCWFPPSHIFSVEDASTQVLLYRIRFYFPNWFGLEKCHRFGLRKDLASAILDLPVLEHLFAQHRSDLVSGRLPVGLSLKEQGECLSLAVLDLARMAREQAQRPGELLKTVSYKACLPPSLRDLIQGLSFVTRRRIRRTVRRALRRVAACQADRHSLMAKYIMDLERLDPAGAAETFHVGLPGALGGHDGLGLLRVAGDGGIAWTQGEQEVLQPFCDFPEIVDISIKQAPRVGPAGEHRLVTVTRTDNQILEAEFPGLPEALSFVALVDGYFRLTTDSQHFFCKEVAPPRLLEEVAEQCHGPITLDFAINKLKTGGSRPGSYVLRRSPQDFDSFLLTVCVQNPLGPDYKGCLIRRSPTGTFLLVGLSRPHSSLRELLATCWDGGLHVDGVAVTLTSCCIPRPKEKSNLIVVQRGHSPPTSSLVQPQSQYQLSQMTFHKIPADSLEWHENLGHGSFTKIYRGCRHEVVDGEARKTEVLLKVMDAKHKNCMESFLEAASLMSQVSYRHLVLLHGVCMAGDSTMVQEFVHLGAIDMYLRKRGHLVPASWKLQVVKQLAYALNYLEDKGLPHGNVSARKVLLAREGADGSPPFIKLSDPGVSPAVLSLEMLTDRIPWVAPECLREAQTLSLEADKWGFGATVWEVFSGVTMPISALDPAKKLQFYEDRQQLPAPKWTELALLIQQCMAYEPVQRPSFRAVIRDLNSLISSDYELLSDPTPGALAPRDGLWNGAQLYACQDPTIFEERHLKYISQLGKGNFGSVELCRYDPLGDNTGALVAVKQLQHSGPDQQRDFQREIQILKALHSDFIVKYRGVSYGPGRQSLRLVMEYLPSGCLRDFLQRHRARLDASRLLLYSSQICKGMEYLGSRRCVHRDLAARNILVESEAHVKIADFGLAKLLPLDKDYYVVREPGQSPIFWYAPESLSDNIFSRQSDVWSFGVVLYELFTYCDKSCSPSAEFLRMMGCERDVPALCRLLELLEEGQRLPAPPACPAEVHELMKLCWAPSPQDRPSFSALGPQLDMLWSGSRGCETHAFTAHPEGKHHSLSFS
Sequence (P23458 whole entry): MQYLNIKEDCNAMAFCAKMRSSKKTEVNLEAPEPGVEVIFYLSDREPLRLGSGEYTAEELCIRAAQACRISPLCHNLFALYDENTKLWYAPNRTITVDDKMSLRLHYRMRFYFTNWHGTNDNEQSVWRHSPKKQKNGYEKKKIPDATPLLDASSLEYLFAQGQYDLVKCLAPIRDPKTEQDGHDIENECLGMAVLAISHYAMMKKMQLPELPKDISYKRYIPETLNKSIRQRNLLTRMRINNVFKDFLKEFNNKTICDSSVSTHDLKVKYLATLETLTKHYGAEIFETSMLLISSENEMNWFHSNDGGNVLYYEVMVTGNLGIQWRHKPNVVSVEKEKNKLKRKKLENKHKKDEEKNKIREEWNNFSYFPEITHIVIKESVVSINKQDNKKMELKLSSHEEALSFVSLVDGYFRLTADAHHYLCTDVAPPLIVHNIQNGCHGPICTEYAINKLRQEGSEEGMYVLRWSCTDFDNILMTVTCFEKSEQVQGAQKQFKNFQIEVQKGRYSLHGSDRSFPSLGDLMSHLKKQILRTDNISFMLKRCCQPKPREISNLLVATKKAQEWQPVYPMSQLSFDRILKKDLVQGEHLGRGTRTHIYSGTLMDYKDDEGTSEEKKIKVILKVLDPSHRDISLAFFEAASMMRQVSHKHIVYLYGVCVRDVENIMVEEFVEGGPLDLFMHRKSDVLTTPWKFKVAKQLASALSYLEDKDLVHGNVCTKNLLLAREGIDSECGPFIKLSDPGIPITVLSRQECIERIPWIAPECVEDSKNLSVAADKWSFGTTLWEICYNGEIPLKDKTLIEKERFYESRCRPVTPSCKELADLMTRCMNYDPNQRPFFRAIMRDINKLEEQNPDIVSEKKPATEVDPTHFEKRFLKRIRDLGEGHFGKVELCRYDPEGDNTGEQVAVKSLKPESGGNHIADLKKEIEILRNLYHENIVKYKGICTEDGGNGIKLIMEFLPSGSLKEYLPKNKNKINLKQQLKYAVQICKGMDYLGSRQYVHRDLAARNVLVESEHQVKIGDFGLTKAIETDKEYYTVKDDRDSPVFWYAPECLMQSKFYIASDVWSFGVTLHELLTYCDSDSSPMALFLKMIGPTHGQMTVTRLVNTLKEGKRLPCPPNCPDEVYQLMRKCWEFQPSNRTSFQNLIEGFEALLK
experiment.summary: Inhibition of JAK1/JAK3 in human whole blood assessed as reduction in IL-2 induced IFN-gamma production after 18 hrs by ELISA
Assay type: protein-complex assay
Measured pIC50 accompanies every entry in the list below.
Hey, just a heads up that pIC50 is the negative log base 10 of the concentration in molar.

Previously resolved entries follow.
>  <structure>
CC1(C)[C@H](Nc2c(C(N)=O)cnn3cc(-c4ccncc4)cc23)CC[C@]1(C)N

>  <pIC50>
7.25

$$$$
>  <structure>
COc1ccccc1-c1cc2c(N[C@@H]3CC[C@](C)(N)C3(C)C)c(C(N)=O)cnn2c1

>  <pIC50>
6.17

$$$$
>  <structure>
CC1(C)[C@H](Nc2c(C(N)=O)cnn3cc(-c4ccc(C#N)nc4)cc23)CC[C@]1(C)N

>  <pIC50>
6.37

$$$$
>  <structure>
CC1(C)[C@H](Nc2c(C(N)=O)cnn3cc(-c4ccncc4F)cc23)CC[C@]1(C)N

>  <pIC50>
6.92

$$$$
>  <structure>
CC1(C)[C@H](Nc2c(C(N)=O)cnn3cc(-c4cc[nH]n4)cc23)CC[C@]1(C)N

>  <pIC50>
7.09

$$$$

Q) Looking for the measured pIC50 of `Cc1cc(-c2cc3c(N[C@@H]4CC[C@](C)(N)C4(C)C)c(C(N)=O)cnn3c2)ccn1` , can you help?
A) 7.26

Q) Follow-up entry: `CC1(C)[C@H](Nc2c(C(N)=O)cnn3cc(-c4cncnc4)cc23)CC[C@]1(C)N`
A) 6.62

Q) Do the same for `CC1(C)[C@H](Nc2c(C(N)=O)cnn3cc(-c4ccccc4F)cc23)CC[C@]1(C)N` please
A) 6.20

Entry source: ChEMBL document CHEMBL4052645
